Provide the recorded log10 of EC50 for the entries that follow.
Tested on: TNFα
Assay: Cot Monocyte TNFα Cell Based Assay
Conditions: Homo sapiens, Monocyte, read-out: EC50 TNF, LPS-stimulated human monocytes, TNFα
Hello, just confirming the data are log10 of EC50 with units of nM.

>>> recorded_number("CC(C)n1cc([C@@H](Nc2cc(Cl)c3ncc(C#N)c(Nc4ccc(F)c(Cl)c4)c3c2)c2cocn2)nn1")
3.09
>>> recorded_number("CC(C)(C)CNc1c(C#N)cnc2c(Cl)cc(N[C@H](c3cn(C4(C(F)(F)F)CC4)nn3)c3cccc4ccncc34)cc12")
1.98
>>> recorded_number("CC(C)(C)N1CCC(n2cc([C@@H](Nc3cc(Cl)c4ncc(C#N)c(Nc5ccc(F)c(Cl)c5)c4c3)c3cccc4c3CNC4)nn2)CC1")
2.95
>>> recorded_number("Cc1nc(F)ccc1[C@@H](Nc1cc(Cl)c2ncc(C#N)c(NCC(C)(C)C)c2c1)c1cn(C2(C(F)F)CC2)nn1")
3.00
>>> recorded_number("CC(C)n1cc([C@@H](Nc2cc(Cl)c3ncc(C#N)c(Nc4ccc(F)c(Cl)c4)c3c2)c2cscn2)nn1")
2.37

Give one value of log10 of EC50 per listed compound.
1. N#Cc1cnc2c(Cl)cc(N[C@@H](c3cccnc3)c3cn(-c4ccccc4)nn3)cc2c1Nc1cnc(F)c(F)c1
2. CCN1CCc2c([C@H](Nc3cc(Cl)c4ncc(C#N)c(Nc5ccc(F)c(Cl)c5)c4c3)c3cn(C(C)C)nn3)csc2C1
3. CC(C)(C)N1CCC(n2cc([C@@H](Nc3cc(Cl)c4ncc(C#N)c(Nc5ccc(F)c(F)c5)c4c3)c3cccnc3)nn2)CC1
4. CC(C)(C)CNc1c(C#N)cnc2c(Cl)cc(NC(c3cn(C4CC4)nn3)c3csc4c3CCN(C3COC3)C4)cc12 (stereo not shown)
5. CC(C)(C)CNc1c(C#N)cnc2c(Cl)cc(N[C@H](c3cn(C4(C(F)F)CC4)nn3)c3cccc4c(=O)[nH]ccc34)cc12

result:
[2.68, 2.18, 2.34, 1.72, 2.12]

query: Consider the compound COc1ccc([C@H](Nc2cc(Cl)c3ncc(C#N)c(Nc4ccc(F)c(Cl)c4)c3c2)c2cn(C3CCN(C(C)(C)C)CC3)nn2)cn1 . State its measured log10 of EC50.
result: 2.27
